This collection of values is drawn from patent US8263598B2.

target: B1R receptor of rats (rB1R) (Rattus norvegicus, UniProt P97583); construct: host or cells: CHO K1 cells; test: FLIPR Ca2+ assay on rat bradykinin 1 receptor (CHO K1 rB1R cells); assay type: cell-based; conditions: test substance 10 μM; CHO K1 cells with B1R gene of rats; agonist Des-Arg9-bradykinin 100 nM; compared to maximum achievable inhibition
Sequence (P97583 whole entry): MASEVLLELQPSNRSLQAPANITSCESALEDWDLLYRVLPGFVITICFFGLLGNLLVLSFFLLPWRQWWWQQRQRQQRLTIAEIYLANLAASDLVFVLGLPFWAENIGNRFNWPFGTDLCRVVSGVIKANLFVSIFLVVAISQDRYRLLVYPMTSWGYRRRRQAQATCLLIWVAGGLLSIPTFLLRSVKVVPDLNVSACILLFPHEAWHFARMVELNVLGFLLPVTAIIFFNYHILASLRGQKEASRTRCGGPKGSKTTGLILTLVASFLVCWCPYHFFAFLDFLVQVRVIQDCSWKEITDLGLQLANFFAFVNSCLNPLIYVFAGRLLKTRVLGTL
endpoint: inhibition at 10 µM (%)

| compound | inhibition at 10 µM / % |
| --- | --- |
| COc1c(C)cc(S(=O)(=O)N(C)CCOCC(=O)N2CCn3cccc3C2c2cccnc2)c(C)c1C (stereo not shown) | 79 |
| COc1cc(C)c(S(=O)(=O)N(C)CCOCC(=O)N2CCn3cc(CN4CCCCC4)nc3C2)c(C)c1 | 104 |
| CCC1c2ccc(CN(C)C)n2CCN1C(=O)COCCN(C)S(=O)(=O)c1cc(C)c(OC)c(C)c1C (stereo not shown) | 93 |
| COc1c(C)cc(S(=O)(=O)N(C)CCOCC(=O)N2CCn3c(CN(C)C)ccc3C2CCc2ccccc2)c(C)c1C (stereo not shown) | 100 |
| COc1cc(C)c(S(=O)(=O)N(C)CCOCC(=O)N2CCn3c(CN4CCOCC4)ccc3C2c2ccccc2)c(C)c1C (stereo not shown) | 103 |
| COc1cc(C)c(S(=O)(=O)N(CCOCC(=O)N2CCn3c(CN4CCCC4)ccc3C2c2ccccc2)Cc2ccccc2)c(C)c1C (stereo not shown) | 102 |
| COc1cc(C)c(S(=O)(=O)N(C)CCOCC(=O)N2CCn3cccc3C2c2ccc(F)c(F)c2)c(C)c1C (stereo not shown) | 92 |

###

target: human B1R receptor (hB1R) (Homo sapiens); construct: host or cells: CHO K1 cells; assay: FLIPR Ca2+ assay on human bradykinin 1 receptor (CHO K1 hB1R cells); type: cell-based; conditions: test substance 10 μM; CHO K1 cells with human B1R gene; agonist Lys-Des-Arg9-bradykinin 0.5 nM; compared to maximum achievable inhibition
Sequence (P46663 whole entry): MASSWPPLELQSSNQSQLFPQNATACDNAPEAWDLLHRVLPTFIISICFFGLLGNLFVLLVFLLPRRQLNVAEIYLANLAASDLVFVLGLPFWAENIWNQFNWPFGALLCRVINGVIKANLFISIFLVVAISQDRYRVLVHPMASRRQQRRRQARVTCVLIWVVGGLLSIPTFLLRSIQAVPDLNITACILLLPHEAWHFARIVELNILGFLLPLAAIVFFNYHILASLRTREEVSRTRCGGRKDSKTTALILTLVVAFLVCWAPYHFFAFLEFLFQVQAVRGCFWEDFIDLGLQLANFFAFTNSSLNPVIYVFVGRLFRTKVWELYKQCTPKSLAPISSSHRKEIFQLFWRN
endpoint: inhibition at 10 µM (%)

| molecule | inhibition at 10 µM / % |
| --- | --- |
| Cc1cc(C)c(S(=O)(=O)N(C)CCOCC(=O)N2CCn3c(CN(C)C)ccc3C2c2cccs2)c(C)c1 (stereo not shown) [Example 144] | 104 |
| COc1c(C)cc(S(=O)(=O)N(C)CCOCC(=O)N2CCn3cccc3C2c2ccc(Cl)nc2)c(C)c1C (stereo not shown) [Example 30] | 98 |
| COc1cc(C)c(S(=O)(=O)N(C)CCOCC(=O)N2CCn3cccc3C2c2cccnc2)c(C)c1 (stereo not shown) [Example 54] | 98 |
| CCC1c2ccc(C)n2CCN1C(=O)COCCN(CC(C)C)S(=O)(=O)c1c(C)cc(OC)c(C)c1C (stereo not shown) [Example 103] | 101 |
| CCC1c2cccn2CCN1C(=O)COCCN(C)S(=O)(=O)c1c(C)cc(OC)c(C)c1C (stereo not shown) [Example 152] | 102 |

[1] COc1cc(C)c(S(=O)(=O)N(C)CCOCC(=O)N2CCn3cccc3C2c2ccc(C(C)(C)C)cc2)c(C)c1 (stereo not shown) [Example 64]
[2] COc1cc(C)c(S(=O)(=O)N(CCOCC(=O)N2CCn3cccc3C2c2cccc(F)c2)CC(C)C)c(C)c1C (stereo not shown) [Example 24]
Enquiry: Looking only at measured inhibition at 10 µM, which entry is lower, 1 or 2 ? Answer by stating the label of the chosen item.
Return: 2
(2: 32%, 1: 100%)

###

Target: B1R receptor of rats (rB1R) (Rattus norvegicus, UniProt P97583)
Construct: host or cells: CHO K1 cells
Assay: FLIPR Ca2+ assay on rat bradykinin 1 receptor (CHO K1 rB1R cells)
Format: cell-based
Details: test substance 10 μM; CHO K1 cells with B1R gene of rats; agonist Des-Arg9-bradykinin 100 nM; compared to maximum achievable inhibition
Source text: The agonistic or antagonistic action of compounds can be quantified on the bradykinin 1 receptor (B1R) of humans and rats with ectopically expressing cell lines (CHO K1 cells) and with the aid of a Ca^2+-sensitive dye (Fluo-4) in the fluorescent imaging plate reader (FLIPR). […] The agonistic or antagonistic action of substances can be determined on the bradykinin 1 receptor (B1R) of humans and rats by means of the following assay. […]
endpoint: inhibition at 10 µM (%)

| compound | inhibition at 10 µM / % |
| --- | --- |
| Cc1cc(C)c(S(=O)(=O)N(C)CCOCC(=O)N2CCn3cccc3C2c2cccs2)c(C)c1 (stereo not shown) | 102 |
| COc1c(C)cc(S(=O)(=O)N(C)CCOCC(=O)N2CCn3c(CN(C)C)ccc3C2Cc2ccccc2)c(C)c1C (stereo not shown) | 101 |
| COc1c(C)cc(S(=O)(=O)N(C)CCOCC(=O)N2CCn3c(CN4CCCC4)ccc3C2c2ccccc2)c(C)c1C (stereo not shown) | 101 |
| Cc1cc(C)c(S(=O)(=O)N(C)CCOCC(=O)N2CCn3cccc3C2C)c(C)c1 (stereo not shown) | 92 |
| COc1cc(C)c(S(=O)(=O)N(CCOCC(=O)N2CCn3cccc3C2C(C)(C)C)CC(C)C)c(C)c1C (stereo not shown) | 98 |
| COc1cc(C)c(S(=O)(=O)N(CCOCC(=O)N2CCn3c(C)ccc3C2C(C)C)CC(C)C)c(C)c1C (stereo not shown) | 102 |
| COc1cc(C)c(S(=O)(=O)N(C)CCOCC(=O)N2CCn3cccc3C2c2cccs2)c(C)c1C (stereo not shown) | 98 |

###

target: human B1R receptor (hB1R) (Homo sapiens); construct: host or cells: CHO K1 cells; assay: FLIPR Ca2+ assay on human bradykinin 1 receptor (CHO K1 hB1R cells); assay type: cell-based; details: test substance 10 μM; CHO K1 cells with human B1R gene; agonist Lys-Des-Arg9-bradykinin 0.5 nM; compared to maximum achievable inhibition
endpoint: inhibition at 10 µM (%)

Some solved cases for reference:
| compound | targetOrSystem | measurementUnit | inhibition at 10 µM |
| --- | --- | --- | --- |
| COc1cc(C)c(S(=O)(=O)N(C)CCOCC(=O)N2CCn3cccc3C2c2cccc(C(F)(F)F)c2)c(C)c1 (stereo not shown) [Example 61] | human B1R receptor (hB1R) (Homo sapiens) | % | 100 |
| COc1cc(C)c(S(=O)(=O)N(C)CCOCC(=O)N2CCn3c(ccc3-c3ccncc3)C2)c(C)c1 [Example 177] | human B1R receptor (hB1R) (Homo sapiens) | % | 99 |
| COc1cc(C)c(S(=O)(=O)N(CCOCC(=O)N2CCn3c(CN(C)C)ccc3C2Cc2ccccc2)CC(C)C)c(C)c1C (stereo not shown) [Example 95] | human B1R receptor (hB1R) (Homo sapiens) | % | 101 |
| COc1cc(C)c(S(=O)(=O)N(CCOCC(=O)N2CCn3cccc3C2c2cccnc2)CC(C)C)c(C)c1C (stereo not shown) [Example 19] | human B1R receptor (hB1R) (Homo sapiens) | % | 101 |

[A] COc1c(C)cc(S(=O)(=O)N(C)CCOCC(=O)N2CCn3cccc3C2c2cccs2)c(C)c1C (stereo not shown) [Example 36]
[B] COc1c(C)cc(S(=O)(=O)N(C)CCOCC(=O)N2CCn3cccc3C2c2cccc(C(F)(F)F)c2)c(C)c1C (stereo not shown) [Example 37]
Enquiry: Please tell me which of the two, A or B , has the higher reported inhibition at 10 µM value. Answer by stating the label of the chosen item.
Return: A

###

target: human B1R receptor (hB1R) (Homo sapiens); construct: host or cells: CHO K1 cells; test: FLIPR Ca2+ assay on human bradykinin 1 receptor (CHO K1 hB1R cells); format: cell-based; details: test substance 10 μM; CHO K1 cells with human B1R gene; agonist Lys-Des-Arg9-bradykinin 0.5 nM; compared to maximum achievable inhibition
endpoint: inhibition at 10 µM (%)

| molecule | targetOrSystem | inhibition at 10 µM, % |
| --- | --- | --- |
| COc1cc(C)c(S(=O)(=O)N(C)CCOCC(=O)N2CCn3c(CN4CCN(C)CC4)ccc3C2)c(C)c1 | human B1R receptor (hB1R) (Homo sapiens) | 101 |
| O=C(C[C@@H](NS(=O)(=O)c1ccc2ccccc2c1)c1ccccc1)N1CCn2cc(CN3CCCCC3)nc2C1 | human B1R receptor (hB1R) (Homo sapiens) | 102 |
| COc1cc(C)c(S(=O)(=O)N(C)CCOCC(=O)N2CCn3cccc3C2c2cccc(F)c2)c(C)c1 (centres unmarked) | human B1R receptor (hB1R) (Homo sapiens) | 95 |
| CCC1c2ccc(CN(C)C)n2CCN1C(=O)COCCN(C)S(=O)(=O)c1c(C)cc(C)cc1C (centres unmarked) | human B1R receptor (hB1R) (Homo sapiens) | 104 |
| COc1cc(C)c(S(=O)(=O)N(C)CCOCC(=O)N2CCn3cccc3C2c2ccc(Cl)nc2)c(C)c1 (centres unmarked) | human B1R receptor (hB1R) (Homo sapiens) | 100 |
